# target entity: Casein kinase I isoform epsilon (Homo sapiens)
# Sequence (P49674 whole entry, canonical isoform): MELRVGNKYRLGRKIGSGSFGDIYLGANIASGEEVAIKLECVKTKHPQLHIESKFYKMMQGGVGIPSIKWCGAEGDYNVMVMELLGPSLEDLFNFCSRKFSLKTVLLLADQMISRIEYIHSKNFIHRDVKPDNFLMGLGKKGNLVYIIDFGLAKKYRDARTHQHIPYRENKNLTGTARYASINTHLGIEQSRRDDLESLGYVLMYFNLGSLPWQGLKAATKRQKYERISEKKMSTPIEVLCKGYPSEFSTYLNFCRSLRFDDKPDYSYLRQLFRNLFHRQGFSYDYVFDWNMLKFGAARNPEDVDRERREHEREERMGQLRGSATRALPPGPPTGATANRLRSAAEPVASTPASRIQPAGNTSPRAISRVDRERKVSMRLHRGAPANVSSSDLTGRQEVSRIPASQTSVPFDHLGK
# experiment notes: Inhibition of CK1epsilon (unknown origin)
readout name: IC50 (nM)

INSERT INTO assay_data (entry_smiles, scale_unit, reported_result) VALUES
  ('O=C(Nc1nc2cc(Cl)c(F)cc2[nH]1)c1coc(NC(=O)c2ccccc2OC(F)(F)F)n1', 'nM', 33);

All figures here come from ChEMBL document CHEMBL5338789.
